- experimental-target: anti-H3K9me3 antibody ab8898
- procedure-details: peptide microarray binding signal (635 nm), min-max normalized on array (fraction of array maximum); higher = stronger binding
- details: peptide region: Unmod H2A variant; binder concentration: 1:2,000 dilution
parameter-measured: peptide microarray binding signal

Use these answered entries as a reference point.
[
  {
    "binder": "KGNYSERVGAGAP [Unmod H2A variant K G N Y S E R V G A G A P]",
    "peptide microarray binding signal": 0.00116
  },
  {
    "binder": "GNAARDNKKTRII [Unmod H2A variant G N A A R D N K K T R I I]",
    "peptide microarray binding signal": 0.000362
  },
  {
    "binder": "GAGAPVYLAAVLE [Unmod H2A variant G A G A P V Y L A A V L E]",
    "peptide microarray binding signal": 0.000423
  },
  {
    "binder": "QGGKARAKSKSRS [Unmod H2A variant Q G G K A R A K S K S R S]",
    "peptide microarray binding signal": 0.000574
  },
  {
    "binder": "SGRGKQGGKARAK [Unmod H2A variant S G R G K Q G G K A R A K]",
    "peptide microarray binding signal": 0.00112
  }
]

## Input // query peptide microarray binding signal value for entry YLTAEILELAGNA [Unmod H2A variant Y L T A E I L E L A G N A]
## Output 0.000664

## Input // query peptide microarray binding signal value for entry QGGKARAKAKSRS [Unmod H2A variant Q G G K A R A K A K S R S]
## Output 0.000302

## Input // query peptide microarray binding signal value for entry LAAVLEYLTAEIL [Unmod H2A variant L A A V L E Y L T A E I L]
## Output 0.000378
